assay target: Histone-lysine N-methyltransferase NSD2 (Homo sapiens, UniProt O96028)
Sequence (O96028 whole entry): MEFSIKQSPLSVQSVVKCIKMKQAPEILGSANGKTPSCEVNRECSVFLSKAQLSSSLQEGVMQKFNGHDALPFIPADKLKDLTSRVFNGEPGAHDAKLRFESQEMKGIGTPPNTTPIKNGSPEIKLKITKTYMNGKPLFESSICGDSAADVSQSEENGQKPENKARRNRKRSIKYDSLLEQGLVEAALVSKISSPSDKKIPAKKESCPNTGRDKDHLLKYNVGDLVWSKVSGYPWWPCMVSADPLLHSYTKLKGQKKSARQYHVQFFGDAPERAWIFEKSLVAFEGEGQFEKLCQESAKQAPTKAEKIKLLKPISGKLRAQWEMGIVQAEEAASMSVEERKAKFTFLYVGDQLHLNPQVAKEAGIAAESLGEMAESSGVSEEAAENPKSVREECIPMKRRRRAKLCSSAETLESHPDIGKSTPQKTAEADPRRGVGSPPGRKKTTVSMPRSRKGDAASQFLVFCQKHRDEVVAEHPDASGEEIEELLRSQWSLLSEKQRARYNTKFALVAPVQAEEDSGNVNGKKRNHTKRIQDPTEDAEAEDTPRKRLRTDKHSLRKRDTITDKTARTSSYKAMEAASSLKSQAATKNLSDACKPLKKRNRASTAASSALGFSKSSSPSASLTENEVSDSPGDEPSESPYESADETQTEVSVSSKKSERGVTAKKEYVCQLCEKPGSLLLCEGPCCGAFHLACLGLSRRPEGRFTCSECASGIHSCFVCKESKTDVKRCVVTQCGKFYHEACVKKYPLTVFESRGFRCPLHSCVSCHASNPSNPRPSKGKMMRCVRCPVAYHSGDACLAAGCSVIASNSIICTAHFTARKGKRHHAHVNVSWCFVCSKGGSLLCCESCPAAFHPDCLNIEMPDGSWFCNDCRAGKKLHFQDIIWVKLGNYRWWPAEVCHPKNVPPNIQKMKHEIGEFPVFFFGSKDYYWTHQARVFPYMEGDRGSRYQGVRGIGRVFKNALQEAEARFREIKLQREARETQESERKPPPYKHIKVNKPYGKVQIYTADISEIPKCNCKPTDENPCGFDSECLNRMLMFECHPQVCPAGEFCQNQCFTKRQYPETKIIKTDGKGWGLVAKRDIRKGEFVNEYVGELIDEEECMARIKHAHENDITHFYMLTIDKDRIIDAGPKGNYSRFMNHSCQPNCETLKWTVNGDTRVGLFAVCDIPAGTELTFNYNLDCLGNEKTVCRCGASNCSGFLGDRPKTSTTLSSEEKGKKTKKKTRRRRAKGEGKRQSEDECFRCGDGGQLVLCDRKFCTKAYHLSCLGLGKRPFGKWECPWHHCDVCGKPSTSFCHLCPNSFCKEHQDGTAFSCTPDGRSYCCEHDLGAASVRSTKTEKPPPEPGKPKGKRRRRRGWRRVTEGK
reported endpoint: Kd (nM)
Number in nM, nothing else.

I am curious: what Kd value has been reported for NCCCCCCNC(=O)c1ccc(NC(=O)c2ccc(CN(C(=O)c3ccc4c(c3)OCC(=O)N4)C3CC3)cc2)cc1 ?
24
